# experimental.target: Drosophila OR85b (Drosophila melanogaster, UniProt Q9VHQ7)
# Construct: expressed in transfected cells
# Sequence (Q9VHQ7 whole entry): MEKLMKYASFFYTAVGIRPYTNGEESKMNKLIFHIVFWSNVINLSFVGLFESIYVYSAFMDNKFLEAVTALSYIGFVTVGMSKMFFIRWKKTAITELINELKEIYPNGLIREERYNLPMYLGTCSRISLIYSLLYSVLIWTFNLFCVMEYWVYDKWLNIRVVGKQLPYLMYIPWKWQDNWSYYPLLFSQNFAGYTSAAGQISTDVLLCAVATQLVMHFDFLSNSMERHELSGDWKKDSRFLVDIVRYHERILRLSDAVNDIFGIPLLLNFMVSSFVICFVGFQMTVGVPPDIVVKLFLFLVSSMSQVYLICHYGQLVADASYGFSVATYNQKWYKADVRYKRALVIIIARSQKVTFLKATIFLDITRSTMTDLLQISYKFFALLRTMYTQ
# Sequence (Q9VNB5 whole entry partner): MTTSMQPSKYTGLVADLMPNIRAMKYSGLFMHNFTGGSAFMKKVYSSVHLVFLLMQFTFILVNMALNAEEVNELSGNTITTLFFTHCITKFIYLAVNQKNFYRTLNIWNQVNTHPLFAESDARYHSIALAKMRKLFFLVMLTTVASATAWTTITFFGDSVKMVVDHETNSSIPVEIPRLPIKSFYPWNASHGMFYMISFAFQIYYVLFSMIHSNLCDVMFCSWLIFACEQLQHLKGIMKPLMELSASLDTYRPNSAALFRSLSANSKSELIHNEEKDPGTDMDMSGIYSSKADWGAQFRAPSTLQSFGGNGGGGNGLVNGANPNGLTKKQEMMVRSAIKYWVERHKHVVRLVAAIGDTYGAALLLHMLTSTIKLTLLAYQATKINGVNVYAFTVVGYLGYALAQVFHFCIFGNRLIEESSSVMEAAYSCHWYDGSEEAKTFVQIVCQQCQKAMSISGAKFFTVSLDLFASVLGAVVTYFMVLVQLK
# procedure.text: Calcium ion fluorescence (GCaMP6) assay, OR85b stable HEK293 cell line
# Type: cell-based
# measurement.context: OR85b cell line, VOC concentration 10 μM
Reported OR85b response (VUAA1-normalized) at 10 μM by item:
Number only, no unit.

compound	experimental.result
CCCCCOC(C)=O [pentyl acetate]	0.00
C=C1CCC2(C(C)C)CC12 (stereo not shown)	0.00
COC(=O)c1ccccc1O [methyl salicylate]	0.00
CCCCCCCCCCC	0.05

# lookup: OR85b response (VUAA1-normalized) at 10 μM of `Cc1ccc(C(C)C)cc1`
0.12

# lookup: OR85b response (VUAA1-normalized) at 10 μM of `CC/C=C\CCO`
0.00

# lookup: OR85b response (VUAA1-normalized) at 10 μM of `C=Cc1ccccc1`
0.00
